meta.source: patent US20030186423A1

# System: D-amidase
# assay.info: Enzyme test for amino acid amides and α-hydroxycarboxylic acid amides (HPLC or NH4+ determination)
# Type: biochemical, Variovorax paradoxus
# settings: substrate 40 mM; DL-Tle-NH2 = 1
assay.metric: Activity with respect to Tle-NH2

The examples below pair each entry with its known result.
NC(=O)[C@@H]1CCCN1 [D-Pro-NH2, prolinamide] :: 24
NC(=O)[C@@H](N)Cc1ccccc1 :: 190
CC[C@H](C)[C@H](N)C(N)=O :: 0.35
NC(=O)[C@@H](N)Cc1c[nH]c2ccccc12 :: 62
NC(=O)[C@H](N)Cc1ccccc1 :: 890

a. CC(O)C(N)=O [D-Lac-NH2, lactic acid amide]
b. CC(C)[C@@H](N)C(N)=O
c. NC(=O)[C@@H](N)Cc1ccc(O)cc1
[Q] Please list the entries, largest Activity with respect to Tle-NH2 first. Hello, could you send the labels back in the order asked? Thank you.
[A] c, a, b
(c: 100, a: 59, b: 13)

I. C[C@H](N)C(N)=O
II. CC(C)C[C@H](N)C(N)=O
III. CC(C)C[C@@H](N)C(N)=O
IV. C[C@@H](N)C(N)=O
[Q] Reorder the items by Activity with respect to Tle-NH2, least to greatest. Hello, could you send the labels back in the order asked? Thank you.
[A] I, II, IV, III
(I: 15, II: 26, IV: 44, III: 400)

###

# Test system: D-amidase
# assay.info: Enzyme test for amino acid amides and α-hydroxycarboxylic acid amides (HPLC or NH4+ determination)
# Format: biochemical, Variovorax paradoxus
# settings: substrate 40 mM; partly purified D-amidase after the 2nd chromatography step (0.56 U/mg); Pro-, Lac-, MHA-NH2 by NH4+ determination
assay.metric: Specific activity (U/mg)

NC(=O)C(N)Cc1c[nH]c2ccccc12 (racemic) :: 86

A. CC(O)C(N)=O [L-Lac-NH2, lactic acid amide]
B. CC(C)C[C@@H](N)C(N)=O
C. NC(=O)[C@H](N)Cc1ccccc1
D. CSCCC(O)C(N)=O (racemic)
E. CC(C)C[C@H](N)C(N)=O
[Q] Reorder the items by Specific activity, least to greatest. Hello, could you send the labels back in the order asked? Thank you.
[A] E, A, D, B, C
(E: 15 U/mg, A: 33 U/mg, D: 82 U/mg, B: 220 U/mg, C: 500 U/mg)

a. CC[C@H](C)[C@H](N)C(N)=O
b. CC(C)(C)C(N)C(N)=O (racemic) [DL-Tle-NH2, D,L-tert-Leucinamide]
c. NC(=O)[C@@H](N)Cc1ccc(O)cc1
d. NC(=O)[C@@H](N)Cc1ccccc1
[Q] Please list the entries, largest Specific activity first. Hello, could you send the labels back in the order asked? Thank you.
[A] d, c, b, a
